target.or.test.system: human GnRH receptor (Homo sapiens, UniProt P30968)
Construct: expressed in transfected cells; host or cells: HEK 293 (hGnRH-R/293, from Dr. Stuart Sealfon)
Sequence (P30968 whole entry): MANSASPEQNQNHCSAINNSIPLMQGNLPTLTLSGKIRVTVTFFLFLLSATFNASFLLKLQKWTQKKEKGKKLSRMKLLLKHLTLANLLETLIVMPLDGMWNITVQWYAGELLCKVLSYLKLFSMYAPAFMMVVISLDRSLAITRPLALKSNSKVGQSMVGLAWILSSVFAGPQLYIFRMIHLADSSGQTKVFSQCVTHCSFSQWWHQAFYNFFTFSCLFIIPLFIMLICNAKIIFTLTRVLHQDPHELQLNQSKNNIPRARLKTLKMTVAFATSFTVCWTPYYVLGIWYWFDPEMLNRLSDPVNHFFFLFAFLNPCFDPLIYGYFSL
assay.info: Radioligand binding, 125I-GnRH-A displacement, membranes of HEK 293 cells with human GnRH receptor
measurement.setup: read-out: hGnRH IC50
observable: IC50

Some solved cases for reference:
Cc1cc2c(cc1Cc1ccc(C(=O)Nc3ccc(OCc4ccccc4)c(OCc4ccccc4)c3)o1)C(C)(C)CCC2(C)C: > 10000 nM
COc1cccc(OC)c1NC(=O)c1ccc(Cc2c(C)c(C)cc(C)c2C)o1: 174 nM
COc1ccc(NC(=O)c2ccc(Cc3cc4c(cc3C)C(C)(C)CCC4(C)C)o2)c(OC)c1: 56 nM
COC(=O)N1CCC(C)(C)c2cc(OC)cc(Cc3ccc(C(=O)Nc4c(OC)cc(OC)cc4OC)o3)c21: 9000 nM
Cc1cc2c(cc1Cc1ccc(C(=O)NCCCCNc3nccc(NCC4CCCO4)n3)o1)C(C)(C)CCC2(C)C (stereo not drawn): 1410 nM

Which IC50 is reported for this compound? `COC(=O)CNC(=O)c1ccc(Cc2cc3c(cc2C)C(C)(C)CCC3(C)C)o1`
1970 nM
